Documented MIC Coagulase Negative Staphylococcus (GC 6257) across a set of molecules
System: Staphylococcus sp.
Experiment: in vitro antibacterial evaluation, MIC by broth dilution
Format: cell-based
Conditions: broth dilution, 18 hours at 35° C.; strain GC 6257
Only the number, expressed in µg/mL, is required.

MIC Coagulase Negative Staphylococcus (GC 6257) reading for N=C1NCC(C(O)C2NC(=O)C(Cc3ccc(OC4OC(CO)C(OC5OC6COC7(OC6C(O)C5O)C5CC6CC(C5)CC7C6)C(O)C4O)cc3)NC(=O)C(CC3CCCCC3)NC(=O)CNC(=O)C(CO)NC(=O)C(C(O)C3CNC(=N)N3C3OC(CO)C(O)C(O)C3O)NC2=O)N1 (stereo not shown) [Example 106] : 0.25

MIC Coagulase Negative Staphylococcus (GC 6257) reading for Cc1cc(C2OCC3OC(OC4C(CO)OC(Oc5ccc(CC6NC(=O)C(C(C)c7ccccc7)NC(=O)CNC(=O)C(CO)NC(=O)C(C(O)C7CNC(=N)N7C7OC(CO)C(O)C(O)C7O)NC(=O)C(C(O)C7CNC(=N)N7)NC6=O)cc5)C(O)C4O)C(O)C(O)C3O2)ccc1[N+](=O)[O-] (stereo not shown) [Example 151] : 2

MIC Coagulase Negative Staphylococcus (GC 6257) reading for CC(C)=CCCC(C)CC1OCC2OC(OC3C(CO)OC(Oc4ccc(CC5NC(=O)C(C(C)c6ccccc6)NC(=O)CNC(=O)C(CO)NC(=O)C(C(O)C6CNC(=N)N6C6OC(CO)C(O)C(O)C6O)NC(=O)C(C(O)C6CNC(=N)N6)NC5=O)cc4)C(O)C3O)C(O)C(O)C2O1 (stereo not shown) [Example 126] : 8

MIC Coagulase Negative Staphylococcus (GC 6257) reading for CCOc1cc(C2OCC3OC(OC4C(CO)OC(Oc5ccc(CC6NC(=O)C(C(C)c7ccccc7)NC(=O)CNC(=O)C(CO)NC(=O)C(C(O)C7CNC(=N)N7C7OC(CO)C(O)C(O)C7O)NC(=O)C(C(O)C7CNC(=N)N7)NC6=O)cc5)C(O)C4O)C(O)C(O)C3O2)ccc1OC (stereo not shown) [Example 152] : 8

MIC Coagulase Negative Staphylococcus (GC 6257) reading for CC(c1ccccc1)C1NC(=O)CNC(=O)C(CO)NC(=O)C(C(O)C2CNC(=N)N2C2OC(CO)C(O)C(O)C2O)NC(=O)C(C(O)C2CNC(=N)N2)NC(=O)C(Cc2ccc(OC3OC(CO)C(OC4OC5COC(Cc6ccccc6)OC5C(O)C4O)C(O)C3O)cc2)NC1=O (stereo not shown) [Example 102] : 0.5

Ref: patent US6914045B2
